Target: CDK7/CycH/Mat1 (Homo sapiens)
Construct: purchased Carna
Assay: CDK7 Enzymatic Activity Assay (Lance Kinase Activity Assay, FRET)
Assay type: biochemical
Conditions: Table 5A; 25 μM ATP final; read-out: CDK7: IC50 [mM] for CDK7 inhibition (the above defined ranges apply)
Experimental: This protocol describes how the Lance Kinase Activity Assay was performed to determine IC50 values of compounds of general formula (I) against CDK/Cyclin complexes. […] It is detected by using a specific EU-labeled anti-phospho peptide antibody. […] For positive controls, 2 μl of DMSO working solution were mixed with 6 μl CDK7/CycH/Mat1/substrate working solution and 2 μl ATP working solution. Positive and negative controls were calculated from at least 8 different wells. […]
Listed below: IC50 values for each entry.

- compound: "COc1ccc(OC)c([C@H](C)Nc2nc(O[C@@H]3CCCNC3)nc3c(C(C)C)cnn23)c1"
  IC50: "> 100 nM"
- compound: "COc1cccc([C@H](C)Nc2nc(NCCCN3CCOCC3)nc3c(C(C)C)cnn23)c1"
  IC50: "> 100 nM"
- compound: "COc1cccc([C@H](C)Nc2nc(NCCN)nc3c(C(C)C)cnn23)c1"
  IC50: "> 100 nM"
- compound: "CC(C)c1cnn2c(NC(C)c3cccc4c3cnn4C)nc(O[C@@H]3CCCNC3)nc12 (stereo partly shown)"
  IC50: "< 10 nM"

* * *

target: CDK7/CycH/Mat1 (Homo sapiens, UniProt P50613); construct: purchased Carna; experiment: CDK7 Enzymatic Activity Assay (Lance Kinase Activity Assay, FRET); format: biochemical; settings: Table 5A; 25 μM ATP final; read-out: CDK7: IC50 [mM] for CDK7 inhibition (the above defined ranges apply)
Sequence (P50613 whole entry): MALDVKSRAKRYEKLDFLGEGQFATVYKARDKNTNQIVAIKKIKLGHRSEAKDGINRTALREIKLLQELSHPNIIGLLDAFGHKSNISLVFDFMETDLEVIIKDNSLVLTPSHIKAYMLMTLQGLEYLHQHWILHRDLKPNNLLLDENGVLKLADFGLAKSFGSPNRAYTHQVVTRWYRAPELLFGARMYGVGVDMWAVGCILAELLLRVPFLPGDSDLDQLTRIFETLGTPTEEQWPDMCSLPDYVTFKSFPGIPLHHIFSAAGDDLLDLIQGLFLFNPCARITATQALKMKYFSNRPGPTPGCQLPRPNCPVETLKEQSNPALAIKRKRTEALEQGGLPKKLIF
Sequence (P51946 whole entry partner): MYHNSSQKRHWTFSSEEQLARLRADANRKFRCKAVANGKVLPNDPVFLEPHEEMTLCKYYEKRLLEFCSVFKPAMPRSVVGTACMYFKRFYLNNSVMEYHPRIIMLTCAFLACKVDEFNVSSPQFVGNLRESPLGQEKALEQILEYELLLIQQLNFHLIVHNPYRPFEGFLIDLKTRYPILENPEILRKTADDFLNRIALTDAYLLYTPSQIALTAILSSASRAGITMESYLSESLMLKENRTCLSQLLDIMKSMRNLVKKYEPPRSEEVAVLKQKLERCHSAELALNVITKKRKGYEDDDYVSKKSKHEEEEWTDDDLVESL
Sequence (P51948 whole entry partner): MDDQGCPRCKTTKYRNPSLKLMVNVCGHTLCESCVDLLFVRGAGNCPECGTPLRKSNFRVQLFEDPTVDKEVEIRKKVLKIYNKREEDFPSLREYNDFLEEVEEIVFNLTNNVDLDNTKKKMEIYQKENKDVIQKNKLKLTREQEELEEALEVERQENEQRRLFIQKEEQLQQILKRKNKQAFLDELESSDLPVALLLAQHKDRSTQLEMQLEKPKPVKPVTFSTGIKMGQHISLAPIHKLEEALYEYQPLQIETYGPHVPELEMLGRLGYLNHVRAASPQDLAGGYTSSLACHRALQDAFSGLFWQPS
Each item that follows carries a reported IC50.
reported-property: IC50

- smiles: "CC(C)c1cnn2c(N[C@@H](C)c3ccc(Cl)cc3)nc(OC3CCN(C)CC3)nc12"
  reported-property: "IC50"
  value: "> 0.1 µM"
- smiles: "CC(C)c1cnn2c(N[C@@H](C)c3ccccc3Br)nc(O[C@@H]3CCCNC3)nc12"
  reported-property: "IC50"
  value: "< 0.01 µM"
- smiles: "COc1cccc([C@H](C)Nc2nc(OC3CCN(C)CC3)nc3c(C(C)C)cnn23)c1"
  reported-property: "IC50"
  value: "< 0.01 µM"
- smiles: "CC(C)c1cnn2c(N[C@@H](C)c3ccccc3)nc(OC3CCN(C)CC3)nc12"
  reported-property: "IC50"
  value: "< 0.01 µM"

* * *

molecular target: CDK7/CycH/Mat1 (Homo sapiens); construct: purchased Carna; assay: CDK7 Enzymatic Activity Assay (Lance Kinase Activity Assay, FRET); assay type: biochemical; details: Table 5A; 25 μM ATP final; read-out: CDK7: IC50 [mM] for CDK7 inhibition (the above defined ranges apply)

- molecule: "COc1cccc([C@H](C)Nc2nc(O[C@@H]3CCCNC3)nc3c(C(C)C)cnn23)c1 [(VII-r)]"
  IC50: "< 0.01 µM"
- molecule: "COc1cccc([C@H](C)Nc2nc(S(=O)(=O)C3CCNCC3)nc3c(C(C)C)cnn23)c1 [(X-f)]"
  IC50: "0.01 to 0.03 µM"
- molecule: "COC(=O)C(CN)Nc1nc(N[C@@H](C)c2cccc(OC)c2)n2ncc(C(C)C)c2n1 (some centres unmarked) [(VIII-y)]"
  IC50: "> 0.1 µM"
- molecule: "COc1cccc([C@H](C)Nc2nc(C(=O)NCCCN)nc3c(C(C)C)cnn23)c1 [(XXVI-5)]"
  IC50: "> 0.1 µM"
- molecule: "COc1cccc([C@H](C)Nc2nc(NCCCN)nc3c(C(C)C)cnn23)c1 [(VIII-t)]"
  IC50: "0.03 to 0.1 µM"
- molecule: "COc1cccc([C@H](C)Nc2nc(OC3COC4(CCNCC4)C3)nc3c(C(C)C)cnn23)c1 (some centres unmarked) [(VII-bx)]"
  IC50: "< 0.01 µM"
- molecule: "COc1cccc([C@H](C)Nc2nc(N3CCC4(CCN4)CC3)nc3c(C(C)C)cnn23)c1 [(VIII-aj)]"
  IC50: "< 0.01 µM"
- molecule: "COc1cccc([C@H](C)Nc2nc(CN(C)CC3CNC3)nc3c(C(C)C)cnn23)c1 [(XXIX-3)]"
  IC50: "> 0.1 µM"
- molecule: "CC(C)c1cnn2c(N[C@@H](C)c3ccccc3)nc(O[C@@H]3CCCNC3)nc12 [(VII-j)]"
  IC50: "< 0.01 µM"
- molecule: "COc1cccc([C@H](C)Nc2nc(N(C)CCN3CCCC3)nc3c(C(C)C)cnn23)c1 [(VIII-k)]"
  IC50: "> 0.1 µM"
- molecule: "CC(C)c1cnn2c(N[C@@H](C)c3cccc(F)c3)nc(O[C@@H]3CCCNC3)nc12 [(VII-ak)]"
  IC50: "0.03 to 0.1 µM"
- molecule: "CC(C)c1cnn2c(N[C@@H](C)c3cccc(OC(F)(F)F)c3)nc(O[C@@H]3CCCNC3)nc12 [(VII-ay)]"
  IC50: "0.01 to 0.03 µM"
- molecule: "CC(C)c1cnn2c(N[C@@H](C)c3ccccc3OC(F)(F)F)nc(O[C@@H]3CCCNC3)nc12 [(VII-at)]"
  IC50: "0.03 to 0.1 µM"
- molecule: "COc1ccccc1[C@H](C)Nc1nc(OC2CCN(C)CC2)nc2c(C(C)C)cnn12 [(VII-z)]"
  IC50: "< 0.01 µM"
- molecule: "CC(C)c1cnn2c(N[C@@H](C)c3cccc(Cl)c3)nc(O[C@@H]3CCCNC3)nc12 [(VII-aj)]"
  IC50: "0.03 to 0.1 µM"
- molecule: "COc1cccc([C@H](C)Nc2nc(C(=O)N3CC4(CNC4)C3)nc3c(C(C)C)cnn23)c1 [(XXVI-1)]"
  IC50: "> 0.1 µM"
- molecule: "COc1cccc([C@H](C)Nc2nc(OC3CCNCC3)nc3c(C(C)C)cnn23)c1 [(VII-q)]"
  IC50: "< 0.01 µM"
- molecule: "COc1cc(OC)cc(C(C)Nc2nc(O[C@@H]3CCCNC3)nc3c(C(C)C)cnn23)c1 (some centres unmarked) [(VII-bg)]"
  IC50: "> 0.1 µM"
- molecule: "COc1cccc([C@H](C)Nc2nc(N[C@@H]3CCCNC3)nc3c(C(C)C)cnn23)c1 [(VIII-h)]"
  IC50: "0.01 to 0.03 µM"
- molecule: "COc1cccc([C@H](C)Nc2nc(OCCN(C)S(=O)(=O)C3CCNCC3)nc3c(C(C)C)cnn23)c1 [(VII-bw)]"
  IC50: "< 0.01 µM"
- molecule: "COc1cccc([C@H](C)Nc2nc(N3CCCC4(CCCCN4)C3)nc3c(C(C)C)cnn23)c1 (some centres unmarked) [(VIII-ah)]"
  IC50: "< 0.01 µM"
- molecule: "CC(C)c1cnn2c(N[C@@H](C)c3ccccc3)nc(OC3CCNCC3)nc12 [(VII-b)]"
  IC50: "< 0.01 µM"
- molecule: "Cc1ccccc1[C@H](C)Nc1nc(O[C@@H]2CCCNC2)nc2c(C(C)C)cnn12 [(VII-af)]"
  IC50: "0.01 to 0.03 µM"
- molecule: "COc1cccc([C@H](C)Nc2nc(C(=O)N(C)CCN3CCOCC3)nc3c(C(C)C)cnn23)c1 [(XXVI-2)]"
  IC50: "> 0.1 µM"
- molecule: "COc1cccc([C@H](C)Nc2nc(NCCOCCN)nc3c(C(C)C)cnn23)c1 [(VIII-u)]"
  IC50: "0.03 to 0.1 µM"
- molecule: "CC(C)c1cnn2c(N[C@H](C)c3cccc(Cl)c3)nc(OC3CCN(C)CC3)nc12 [(VII-ad)]"
  IC50: "< 0.01 µM"
- molecule: "COc1cccc([C@H](C)Nc2nc(N(C)CCN3CCOCC3)nc3c(C(C)C)cnn23)c1 [(VIII-s)]"
  IC50: "> 0.1 µM"
- molecule: "CCOc1cccc([C@H](C)Nc2nc(O[C@@H]3CCCNC3)nc3c(C(C)C)cnn23)c1 [(VII-aV)]"
  IC50: "> 0.1 µM"
- molecule: "COc1ccccc1[C@H](C)Nc1nc([S+]([O-])C2CCNCC2)nc2c(C(C)C)cnn12 (some centres unmarked) [(X-c)]"
  IC50: "< 0.01 µM"
- molecule: "CC(C)c1cnn2c(N[C@@H](C)c3cccc4ccccc34)nc(OC3CCN(C)CC3)nc12 [(VII-ac)]"
  IC50: "< 0.01 µM"
- molecule: "CC(C)c1cnn2c(N[C@@H](C)c3ccccc3)nc(O[C@H]3CCNC3)nc12 [(VII-h)]"
  IC50: "< 0.01 µM"
- molecule: "COCCN1CCN(Cc2nc(N[C@@H](C)c3cccc(OC)c3)n3ncc(C(C)C)c3n2)CC1 [(XXIX-11)]"
  IC50: "> 0.1 µM"

These measurements were taken from patent US9096608B2.
